- system.tested: DNA topoisomerase 1 (Homo sapiens, UniProt P11387)
- Sequence (P11387 whole entry): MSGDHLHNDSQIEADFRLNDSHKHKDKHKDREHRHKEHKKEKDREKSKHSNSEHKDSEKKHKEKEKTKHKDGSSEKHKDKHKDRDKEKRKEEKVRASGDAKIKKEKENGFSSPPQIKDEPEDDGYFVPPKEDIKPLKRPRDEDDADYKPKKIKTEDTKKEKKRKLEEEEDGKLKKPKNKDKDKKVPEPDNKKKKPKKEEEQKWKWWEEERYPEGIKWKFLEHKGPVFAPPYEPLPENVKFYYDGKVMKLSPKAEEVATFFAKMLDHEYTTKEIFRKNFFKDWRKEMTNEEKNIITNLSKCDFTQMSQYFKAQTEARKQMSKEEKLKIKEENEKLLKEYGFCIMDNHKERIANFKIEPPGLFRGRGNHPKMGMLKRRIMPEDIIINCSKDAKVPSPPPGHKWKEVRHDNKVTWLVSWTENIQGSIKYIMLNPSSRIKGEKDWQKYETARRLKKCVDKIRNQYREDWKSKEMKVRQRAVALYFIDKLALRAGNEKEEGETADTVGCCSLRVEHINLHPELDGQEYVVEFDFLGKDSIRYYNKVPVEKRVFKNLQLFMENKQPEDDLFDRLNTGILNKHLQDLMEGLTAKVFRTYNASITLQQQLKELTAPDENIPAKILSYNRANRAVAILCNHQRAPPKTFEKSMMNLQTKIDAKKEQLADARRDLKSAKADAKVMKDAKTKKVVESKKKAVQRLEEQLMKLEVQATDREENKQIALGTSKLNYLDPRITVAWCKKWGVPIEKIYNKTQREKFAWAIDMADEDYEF
- protocol.summary: Topoisomerase I activity for single-strand breaks in the DNA substrate
outcome.measure: EC50 (nM)
State the answer as a number, implicitly in nM.

Study these solved cases before continuing.
compound: O=C1NC(=O)c2c1c1c3cc(F)c(F)cc3[nH]c1c1c2c2cc(F)c(F)cc2n1C1OC(CF)C(O)C(O)C1O (centres undefined)
assay.value: 480
//
compound: O=C1NC(=O)c2c1c1c3cc(F)c(F)cc3sc1c1c2c2cc(F)c(F)cc2n1C1OC(CO)C(F)(F)C(O)C1O (centres undefined)
assay.value: 80
//
compound: O=C1NC(=O)c2c1c1c3cc(F)c(F)cc3sc1c1c2c2cc(F)c(F)cc2n1C1OC(CF)C(O)C(O)C1O (centres undefined)
assay.value: 240

Okay, now this compound:
Recorded result, O=C1NC(=O)c2c1c1c3cc(F)ccc3[nH]c1c1c2c2cc(F)ccc2n1C1OC(CF)[C@@H](O)C(O)C1O (some centres undefined) , EC50: 704
